measurement_protocol: Plasma and brain pharmacokinetics in rats, 1 and 7 days oral administration
Type: in vivo, Sprague-Dawley rats
settings: both sexes, Sprague-Dawley, po; rat plasma; Day 1; 2.67 g/kg p.o.
recorded_endpoint: half-life (min)
Give bare numbers, in min.

Exercise: Field request: half-life | item: OC[C@H]1O[C@H](O[C@H]2O[C@H](CO)[C@@H](O)[C@H](O)[C@H]2O)[C@H](O)[C@@H](O)[C@@H]1O
Solution: 45.6

###

measurement_protocol: Plasma pharmacokinetics in macaques, 1 and 7 days oral administration
Format: in vivo
settings: female, monkey, plasma, po, 2.67 g/kg/day, macaque plasma; 2.67 g/kg/day p.o.; Day 1
Method: Three female macaques (3.81-4.67 kg) received trehalose (2.67 and 5.34 g/kg/day, oral gavage in sterile water) for 7 days. Plasma samples were collected pre-dose and 15 min, 30 min, 1 h, 2 h, 4 h, 6 h, 12 h and 24 h post-dose on days 1 and 7 and analysed for trehalose levels using a validated LC-MS/MS method and plasma exposure time courses (FIG. 2) and pharmacokinetic parameters were calculated (Table 7).
recorded_endpoint: half-life (h)
Give bare numbers, in h.

Exercise: Give its half-life value. Item: OC[C@H]1O[C@H](O[C@H]2O[C@H](CO)[C@@H](O)[C@H](O)[C@H]2O)[C@H](O)[C@@H](O)[C@@H]1O [trehalose]
Solution: 1.1
